target entity: PKMYT1 (human) (UniProt Q99640)
Sequence (Q99640 whole entry, looked up): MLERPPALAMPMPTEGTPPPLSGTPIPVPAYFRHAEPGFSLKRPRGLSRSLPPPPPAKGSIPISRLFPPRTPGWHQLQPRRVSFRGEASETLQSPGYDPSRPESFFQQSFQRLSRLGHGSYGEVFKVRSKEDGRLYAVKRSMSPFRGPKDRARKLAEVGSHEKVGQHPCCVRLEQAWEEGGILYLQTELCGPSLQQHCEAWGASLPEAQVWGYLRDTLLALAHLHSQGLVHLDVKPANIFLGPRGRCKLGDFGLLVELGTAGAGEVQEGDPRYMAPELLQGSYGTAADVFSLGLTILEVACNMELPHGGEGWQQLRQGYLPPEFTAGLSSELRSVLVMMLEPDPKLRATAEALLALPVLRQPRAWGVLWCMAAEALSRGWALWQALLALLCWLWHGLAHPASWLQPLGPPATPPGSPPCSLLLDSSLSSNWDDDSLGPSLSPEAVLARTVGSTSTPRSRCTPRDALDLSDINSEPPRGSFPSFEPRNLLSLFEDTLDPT
protocol: KINOMEscan competition binding
test conditions: compound 10.0 µM
metric name: kinase still bound, per cent of control (%)

1) O=C(O)c1ccc(Nc2ncc3c(n2)-c2ccc(Cl)cc2C(c2c(F)cccc2F)=NC3)cc1; 65
2) COc1cc(C(=O)NC2CCN(C)CC2)ccc1Nc1ncc2c(n1)N(C1CCCC1)CCC(=O)N2C(C)C; 100
3) Cn1c(=O)n(-c2ccc(C(C)(C)C#N)cc2)c2c3cc(-c4cnc5ccccc5c4)ccc3ncc21; 100
4) C[C@@H](Oc1cc(-n2cnc3ccc(CN4CCN(C)CC4)cc32)sc1C(N)=O)c1ccccc1C(F)(F)F; 100

---

Below, each entry is listed with its recorded kinase still bound, per cent of control.
target entity: CDK16 (human) (UniProt Q00536)
Sequence (Q00536 whole entry, looked up): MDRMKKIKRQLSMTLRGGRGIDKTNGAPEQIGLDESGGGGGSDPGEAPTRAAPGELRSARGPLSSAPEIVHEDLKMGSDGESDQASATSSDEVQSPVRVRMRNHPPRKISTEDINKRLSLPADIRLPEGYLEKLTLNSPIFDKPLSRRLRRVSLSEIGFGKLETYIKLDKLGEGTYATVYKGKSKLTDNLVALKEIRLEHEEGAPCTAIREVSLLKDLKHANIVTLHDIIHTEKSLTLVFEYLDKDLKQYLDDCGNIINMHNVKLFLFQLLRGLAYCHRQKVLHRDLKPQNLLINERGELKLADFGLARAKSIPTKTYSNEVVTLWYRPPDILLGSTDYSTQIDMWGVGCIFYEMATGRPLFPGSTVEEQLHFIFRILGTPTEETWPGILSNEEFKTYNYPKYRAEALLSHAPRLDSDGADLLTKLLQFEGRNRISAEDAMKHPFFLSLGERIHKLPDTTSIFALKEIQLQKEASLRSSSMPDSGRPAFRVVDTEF
protocol: KINOMEscan competition binding
test conditions: compound 10.0 µM
metric name: kinase still bound, per cent of control (%)

1) CCN1CCN(Cc2ccc(Nc3ncc4c(n3)N(C)c3ccccc3C(=O)N4C)cc2C(F)(F)F)CC1; 92
2) Cc1cc([C@@H](C)Nc2ccccc2C(=O)O)c2nc(N3CCOCC3)cc(=O)n2c1; 100
3) N#Cc1c(NC(=O)c2cccc3ccccc23)sc2c1CCCC2; 100
4) C[C@@H](Oc1cc(-n2cnc3ccc(CN4CCN(C)CC4)cc32)sc1C(N)=O)c1ccccc1C(F)(F)F; 100
5) COc1cc(C(=O)NC2CCN(C)CC2)ccc1Nc1ncc2c(n1)N(C1CCCC1)CCC(=O)N2C(C)C; 100

---

target entity: IRAK3 (human)
protocol: KINOMEscan competition binding
test conditions: compound 10.0 µM
metric name: kinase still bound, per cent of control

1. CCN1CCN(Cc2ccc(Nc3ncc4c(n3)N(C)c3ccccc3C(=O)N4C)cc2C(F)(F)F)CC1; 69%
2. C[C@@H](Oc1cc(-n2cnc3ccc(CN4CCN(C)CC4)cc32)sc1C(N)=O)c1ccccc1C(F)(F)F; 38%
3. O=C(NC1CC1)c1cccc(-c2ccc3c(NC(=O)C4CC4)n[nH]c3c2)c1; 69%
4. N#Cc1c(NC(=O)c2cccc3ccccc23)sc2c1CCCC2; 100%
5. CN(C)C/C=C/C(=O)Nc1cccc(Nc2ncc3c(n2)N(C)c2ccccc2C(=O)N3C)c1; 44%
6. COc1cc(C(=O)NC2CCN(C)CC2)ccc1Nc1ncc2c(n1)N(C1CCCC1)C(C)CC(=O)N2C (stereo not given); 100%
7. Nc1ccc(-c2ccc3ncc4ccc(=O)n(-c5cccc(C(F)(F)F)c5)c4c3c2)cn1; 42%
8. COc1cc(N2CCN(C)CC2)ccc1Nc1nc(N)c(C(=O)c2c(Cl)cccc2Cl)s1; 90%
9. O=C1Nc2ccc(I)cc2/C1=C/c1cc(Br)c(O)c(Br)c1; 62%
10. Cc1cc([C@@H](C)Nc2ccccc2C(=O)O)c2nc(N3CCOCC3)cc(=O)n2c1; 58%
11. CC[C@@H]1C(=O)N(C)c2cnc(Nc3ccc(C(=O)NC4CCN(C)CC4)cc3OC)nc2N1C1CCCC1; 100%
12. O=C(NOC[C@H](O)CO)c1ccc(F)c(F)c1Nc1ccc(I)cc1F; 100%
13. Cc1ccc2nc(NCCN)c3ncc(C)n3c2c1; 72%
14. COc1cc(C(=O)NC2CCN(C)CC2)ccc1Nc1ncc2c(n1)N(C1CCCC1)CCC(=O)N2C(C)C; 100%
15. Cn1c(=O)n(-c2ccc(C(C)(C)C#N)cc2)c2c3cc(-c4cnc5ccccc5c4)ccc3ncc21; 100%

---

target entity: PTK2B (human)
protocol: KINOMEscan competition binding
test conditions: compound 10.0 µM
metric name: kinase still bound, per cent of control (%)

1. C=CC(=O)Nc1cccc(Nc2nc(N[C@H]3CC[C@H](N(C)C)CC3)nc3c2ncn3C(C)C)c1; 51
2. C=CC(=O)Nc1cc(NC(=O)c2ccc(C)c(NC(=O)c3ccno3)c2)cc(C(F)(F)F)c1; 91
3. OCCCNc1cc(-c2ccnc(Nc3cccc(Cl)c3)n2)ccn1; 100
4. CC[C@@H]1C(=O)N(C)c2cnc(Nc3ccc(C(=O)NC4CCN(C)CC4)cc3OC)nc2N1C1CCCC1; 20
5. CCOc1cc2ncc(C#N)c(Nc3ccc(OCc4ccccn4)c(Cl)c3)c2cc1NC(=O)/C=C/CN(C)C; 90
6. CCC(=O)N1CCN(c2ccc(-n3c(=O)ccc4cnc5ccc(-c6cnc7ccccc7c6)cc5c43)cc2C(F)(F)F)CC1; 100
7. COc1cc(C(=O)NC2CCN(C)CC2)ccc1Nc1ncc2c(n1)N(C1CCCC1)CCC(=O)N2C(C)C; 100
8. C[C@@H](Oc1cc(-n2cnc3ccc(CN4CCN(C)CC4)cc32)sc1C(N)=O)c1ccccc1C(F)(F)F; 82

---

target entity: TESK1 (human)
protocol: KINOMEscan competition binding
test conditions: compound 10.0 µM
metric name: kinase still bound, per cent of control (%)

1. Cn1c(=O)n(-c2ccc(C(C)(C)C#N)cc2)c2c3cc(-c4cnc5ccccc5c4)ccc3ncc21; 100
2. O=C(NC1CC1)c1cccc(-c2ccc3c(NC(=O)C4CC4)n[nH]c3c2)c1; 100
3. C=CC(=O)Nc1cc(NC(=O)c2ccc(C)c(NC(=O)c3ccno3)c2)cc(C(F)(F)F)c1; 100
4. C=CC(=O)Nc1cccc(Nc2nc(N[C@H]3CC[C@H](N(C)C)CC3)nc3c2ncn3C(C)C)c1; 93
5. Cc1cc([C@@H](C)Nc2ccccc2C(=O)O)c2nc(N3CCOCC3)cc(=O)n2c1; 100
6. Cc1ccc2nc(NCCN)c3ncc(C)n3c2c1; 79

---

target entity: GRK4 (human)
protocol: KINOMEscan competition binding
test conditions: compound 10.0 µM
Below, each entry is listed with its recorded kinase still bound, per cent of control.
metric name: kinase still bound, per cent of control (%)

1) C=CC(=O)Nc1cccc(Nc2nc(N[C@H]3CC[C@H](N(C)C)CC3)nc3c2ncn3C(C)C)c1; 43
2) Cc1cc([C@@H](C)Nc2ccccc2C(=O)O)c2nc(N3CCOCC3)cc(=O)n2c1; 90
3) Cc1ccc(NC(=O)c2cccc(C(C)(C)C#N)c2)cc1Nc1ccc2ncn(C)c(=O)c2c1; 100
4) Cc1ccc2nc(NCCN)c3ncc(C)n3c2c1; 100
5) O=C(O)c1ccc(Nc2ncc3c(n2)-c2ccc(Cl)cc2C(c2c(F)cccc2F)=NC3)cc1; 100

---

target entity: DAPK3 (human)
protocol: KINOMEscan competition binding
test conditions: compound 10.0 µM
metric name: kinase still bound, per cent of control (%)

1) Cc1ccc(NC(=O)c2cccc(C(C)(C)C#N)c2)cc1Nc1ccc2ncn(C)c(=O)c2c1; 85
2) CCOc1cc2ncc(C#N)c(Nc3ccc(OCc4ccccn4)c(Cl)c3)c2cc1NC(=O)/C=C/CN(C)C; 91
3) Cc1ccc(C(=O)Nc2cccc(C(F)(F)F)c2)cc1Nc1cncc(C(N)=O)c1; 100

---

target entity: RPS6KA6 KD1 (human) (UniProt Q9UK32)
Sequence (Q9UK32 whole entry, looked up): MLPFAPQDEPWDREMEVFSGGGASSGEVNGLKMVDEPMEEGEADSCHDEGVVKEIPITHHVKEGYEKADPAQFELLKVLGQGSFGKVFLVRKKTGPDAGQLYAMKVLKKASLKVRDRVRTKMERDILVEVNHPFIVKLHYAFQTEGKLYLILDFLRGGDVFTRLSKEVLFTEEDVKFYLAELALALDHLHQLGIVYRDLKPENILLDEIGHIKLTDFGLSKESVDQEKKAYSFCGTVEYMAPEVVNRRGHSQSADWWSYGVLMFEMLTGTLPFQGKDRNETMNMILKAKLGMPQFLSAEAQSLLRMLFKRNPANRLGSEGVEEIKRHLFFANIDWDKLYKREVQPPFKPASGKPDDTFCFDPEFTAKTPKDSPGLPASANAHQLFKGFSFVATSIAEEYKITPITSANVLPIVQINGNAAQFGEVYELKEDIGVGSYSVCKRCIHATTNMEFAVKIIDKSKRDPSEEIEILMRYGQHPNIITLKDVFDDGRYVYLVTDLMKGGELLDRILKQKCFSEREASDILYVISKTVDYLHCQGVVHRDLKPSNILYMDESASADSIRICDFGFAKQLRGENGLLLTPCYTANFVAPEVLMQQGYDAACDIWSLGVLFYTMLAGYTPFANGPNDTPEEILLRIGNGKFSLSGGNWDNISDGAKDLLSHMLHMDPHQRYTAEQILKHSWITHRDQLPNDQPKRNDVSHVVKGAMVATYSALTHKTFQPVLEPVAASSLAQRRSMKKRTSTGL
protocol: KINOMEscan competition binding
test conditions: compound 10.0 µM
metric name: kinase still bound, per cent of control (%)

1. Cc1cc([C@@H](C)Nc2ccccc2C(=O)O)c2nc(N3CCOCC3)cc(=O)n2c1; 71
2. C=CC(=O)Nc1cccc(Nc2nc(N[C@H]3CC[C@H](N(C)C)CC3)nc3c2ncn3C(C)C)c1; 8.2
3. Nc1ccc(-c2ccc3ncc4ccc(=O)n(-c5cccc(C(F)(F)F)c5)c4c3c2)cn1; 80
4. O=C(NC1CC1)c1cccc(-c2ccc3c(NC(=O)C4CC4)n[nH]c3c2)c1; 91
5. CC[C@@H]1C(=O)N(C)c2cnc(Nc3ccc(C(=O)NC4CCN(C)CC4)cc3OC)nc2N1C1CCCC1; 100
6. C=CC(=O)Nc1cccc(Oc2nc(Nc3ccc(N4CCN(C)CC4)cc3OC)ncc2Cl)c1; 100

---

Below, each entry is listed with its recorded kinase still bound, per cent of control.
target entity: UniProt O14965
Sequence (O14965 whole entry, looked up): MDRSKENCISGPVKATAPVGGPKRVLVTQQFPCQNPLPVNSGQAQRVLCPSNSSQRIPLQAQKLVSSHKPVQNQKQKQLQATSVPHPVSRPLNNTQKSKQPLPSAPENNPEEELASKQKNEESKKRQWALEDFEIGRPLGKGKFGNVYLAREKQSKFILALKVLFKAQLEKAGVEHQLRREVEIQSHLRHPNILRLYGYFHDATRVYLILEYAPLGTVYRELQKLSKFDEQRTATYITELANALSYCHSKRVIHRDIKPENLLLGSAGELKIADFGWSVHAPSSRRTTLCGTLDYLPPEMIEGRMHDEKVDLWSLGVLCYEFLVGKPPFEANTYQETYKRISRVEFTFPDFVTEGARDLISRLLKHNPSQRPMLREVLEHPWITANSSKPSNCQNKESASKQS
protocol: KINOMEscan competition binding
test conditions: compound 10.0 µM
metric name: kinase still bound, per cent of control (%)

1) CCN1CCN(Cc2ccc(Nc3ncc4c(n3)N(C)c3ccccc3C(=O)N4C)cc2C(F)(F)F)CC1; 0.4
2) Cc1ccc(C(=O)Nc2cccc(C(F)(F)F)c2)cc1Nc1cncc(C(N)=O)c1; 100
3) OCCCNc1cc(-c2ccnc(Nc3cccc(Cl)c3)n2)ccn1; 100
4) Cc1ccc2nc(NCCN)c3ncc(C)n3c2c1; 100
5) CCCS(=O)(=O)Nc1ccc(F)c(C(=O)c2c[nH]c3ncc(-c4ccc(Cl)cc4)cc23)c1F; 81

---

target entity: VRK2 (human)
protocol: KINOMEscan competition binding
test conditions: compound 10.0 µM
metric name: kinase still bound, per cent of control (%)

1. CCCS(=O)(=O)Nc1ccc(F)c(C(=O)c2c[nH]c3ncc(-c4ccc(Cl)cc4)cc23)c1F; 100
2. CCN1CCN(Cc2ccc(Nc3ncc4c(n3)N(C)c3ccccc3C(=O)N4C)cc2C(F)(F)F)CC1; 100
3. C=CC(=O)Nc1cccc(Nc2nc(N[C@H]3CC[C@H](N(C)C)CC3)nc3c2ncn3C(C)C)c1; 11
4. O=C(NOC[C@H](O)CO)c1ccc(F)c(F)c1Nc1ccc(I)cc1F; 100
5. O=C(NC1CC1)c1cccc(-c2ccc3c(NC(=O)C4CC4)n[nH]c3c2)c1; 100
